B1: Peroxisome proliferator-activated receptor delta, residues 71 to 145; numbered along this chain, Q03181 (parent)
chain: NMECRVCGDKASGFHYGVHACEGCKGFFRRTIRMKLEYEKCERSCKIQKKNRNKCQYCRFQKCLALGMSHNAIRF

- Variants of: B1
- method: abundance fitness (aPCA) (normalised: wild type 0, dead -1); higher = more abundant; growth selection in yeast, the domain comes from the species named
- settings: Homo sapiens
Answer each item with its documented abundance fitness.

Could you share which abundance fitness value was measured for NMECRVCGDKASGFHYGVHACEGCKGFFRRTIRMKLEYEKCERSCKIQKKNRFKCQYCRFQKCLALGMSHNAIRF [N53F] ? -0.083

Could you share which abundance fitness value was measured for NMECRVCGDKASGFHYGVHACEGCKGFFRRTIRMKLEYEKYERSCKIQKKNRNKCQYCRFQKCLALGMSHNAIRF [C41Y] ? -0.816

Could you share which abundance fitness value was measured for NMECRVCGDKASGFHYGVHACEGCKGFFRRTIRMKLEYEKCERSCKIQKKNRNKCQYCRFQKCLALGMKHNAIRF [S69K] ? 0.023

Could you share which abundance fitness value was measured for NMECRVCGDKASGFHYGVHAIEGCKGFFRRTIRMKLEYEKCERSCKIQKKNRNKCQYCRFQKCLALGMSHNAIRF [C21I] ? -0.608

Could you share which abundance fitness value was measured for NMECRVCGDKAFGFHYGVHACEGCKGFFRRTIRMKLEYEKCERSCKIQKKNRNKCQYCRFQKCLALGMSHNAIRF [S12F] ? -0.115

Could you share which abundance fitness value was measured for NMECRVCGDKASGFHYGVHACEGCKGFFRRTIRMKLEYEKCERSCKIQKKDRNKCQYCRFQKCLALGMSHNAIRF [N51D] ? 0.086

Could you share which abundance fitness value was measured for NMECRVCGDKASGFHYGVHACEGCKGFFRRLIRMKLEYEKCERSCKIQKKNRNKCQYCRFQKCLALGMSHNAIRF [T31L] ? -0.985

Could you share which abundance fitness value was measured for NMECRVCGDKASGFHYGVHACEGCKGFFRRTIRMKLEYEKCERSCKIQKKNRNKCQYCRFQKCLALGMSHNEIRF [A72E] ? 0.122

Could you share which abundance fitness value was measured for NMECRVCGDKASGFHYGVHACEGCKGFFRRTIRMKLEYEKCERSCKIQKKWRNKCQYCRFQKCLALGMSHNAIRF [N51W] ? -0.408

Could you share which abundance fitness value was measured for NMECRVCGDKASGFHYGVHACEGCTGFFRRTIRMKLEYEKCERSCKIQKKNRNKCQYCRFQKCLALGMSHNAIRF [K25T] ? 0.094

Could you share which abundance fitness value was measured for NMECRVCGDMASGFHYGVHACEGCKGFFRRTIRMKLEYEKCERSCKIQKKNRNKCQYCRFQKCLALGMSHNAIRF [K10M] ? -0.107

Could you share which abundance fitness value was measured for NMECRVCGDKASGFHYGVHACEGCKGFFRRTIRMRLEYEKCERSCKIQKKNRNKCQYCRFQKCLALGMSHNAIRF [K35R] ? -0.026

Could you share which abundance fitness value was measured for NMECRVCGDKASGFHYGVHACEGCKGFFRRTIRMKLEYEKCERSCKIQKKNRNKCQYCRFFKCLALGMSHNAIRF [Q61F] ? -0.909

Could you share which abundance fitness value was measured for NMECRVCGDKASGFHYGVHACEGCKGFFRRTIRMKLEYEKCERSCKIQKKNRNKCQYCRFSKCLALGMSHNAIRF [Q61S] ? -0.248

Could you share which abundance fitness value was measured for NMECRVCGDKSSGFHYGVHACEGCKGFFRRTIRMKLEYEKCERSCKIQKKNRNKCQYCRFQKCLALGMSHNAIRF [A11S] ? -0.091

Could you share which abundance fitness value was measured for NMECRVCGDKASGFHYGVHACEGCKGFFRRTIRMKLEYEKCERSCKIQKKNRNKCQYCRFQKCLALGMSINAIRF [H70I] ? 0.198

Could you share which abundance fitness value was measured for NMECRVQGDKASGFHYGVHACEGCKGFFRRTIRMKLEYEKCERSCKIQKKNRNKCQYCRFQKCLALGMSHNAIRF [C7Q] ? -0.584

Could you share which abundance fitness value was measured for NMECRVCGDKASGFHYGWHACEGCKGFFRRTIRMKLEYEKCERSCKIQKKNRNKCQYCRFQKCLALGMSHNAIRF [V18W] ? -0.721

Could you share which abundance fitness value was measured for NMECRVCGDKASGFHYGVHACEGCKGFFNRTIRMKLEYEKCERSCKIQKKNRNKCQYCRFQKCLALGMSHNAIRF [R29N] ? 0.085

Could you share which abundance fitness value was measured for NMECRVCGDKASGFHYGVHACEGCKGFFRRTFRMKLEYEKCERSCKIQKKNRNKCQYCRFQKCLALGMSHNAIRF [I32F] ? -0.185

Could you share which abundance fitness value was measured for NMECRVCGDKASGFHYGVHACEGCKGFFRRTIRMKLEYEKCERSCKIQKFNRNKCQYCRFQKCLALGMSHNAIRF [K50F] ? 0.07

Could you share which abundance fitness value was measured for NMECRVCGDKASGFHYGVHACEGCKGFFRRTIRMKLEYEKCERSCKIQKKNRNKCQYCRFQKCLALDMSHNAIRF [G67D] ? -0.441

Could you share which abundance fitness value was measured for NMECRVCGDKASGFHYGVHACEGCKGFFRRTIRMKLEYEQCERSCKIQKKNRNKCQYCRFQKCLALGMSHNAIRF [K40Q] ? -0.05

Could you share which abundance fitness value was measured for NMECRVCGDKASGFHYGVHACEGCKGFFRRTIRMKLEYEKCERSCKIQKKNRNKCQYCRFQKCLALPMSHNAIRF [G67P] ? -0.562

Could you share which abundance fitness value was measured for NMECRVCGDKASGFHYGVHACEGCKGFFRRTIRMKLEYEKCERMCKIQKKNRNKCQYCRFQKCLALGMSHNAIRF [S44M] ? 0.028

Could you share which abundance fitness value was measured for NMECRVCGDKASGFHYGVHACEGCKCFFRRTIRMKLEYEKCERSCKIQKKNRNKCQYCRFQKCLALGMSHNAIRF [G26C] ? -0.139

Could you share which abundance fitness value was measured for NMECRVCLDKASGFHYGVHACEGCKGFFRRTIRMKLEYEKCERSCKIQKKNRNKCQYCRFQKCLALGMSHNAIRF [G8L] ? -0.598

Could you share which abundance fitness value was measured for NMECRVCGDKASGFHYGVHACEGCKGFFRRTIRMKLEYEKCERSCKIQKKNRNKCQYCRFQKTLALGMSHNAIRF [C63T] ? -0.85

Could you share which abundance fitness value was measured for NMECRVCGDKASGFHYGVHACEGCKGFFRRTIRMKLEYEKCERSCKIQAKNRNKCQYCRFQKCLALGMSHNAIRF [K49A] ? 0

Could you share which abundance fitness value was measured for NMECRVCGDKASGFHYGVHACEGCKGFFRRTIRMKLEYEKCERSCKIQKKNRNKCQYCRFQKCLALGMSHNAIRV [F75V] ? 0.015

Could you share which abundance fitness value was measured for NMECRVCGVKASGFHYGVHACEGCKGFFRRTIRMKLEYEKCERSCKIQKKNRNKCQYCRFQKCLALGMSHNAIRF [D9V] ? -0.331

Could you share which abundance fitness value was measured for NMECRVCGDKASGFHYGVHACEGCKGFFRRTIRMKLEYKKCERSCKIQKKNRNKCQYCRFQKCLALGMSHNAIRF [E39K] ? 0.017

Could you share which abundance fitness value was measured for NMECRVCGDKASGFHYGVHACEGCKGFFRRTIRMKLEYWKCERSCKIQKKNRNKCQYCRFQKCLALGMSHNAIRF [E39W] ? -0.518

Could you share which abundance fitness value was measured for NMENRVCGDKASGFHYGVHACEGCKGFFRRTIRMKLEYEKCERSCKIQKKNRNKCQYCRFQKCLALGMSHNAIRF [C4N] ? -0.738
